Measured binding affinity ratio by item
Target Of Assay: HLA-A*0206 (human)
Assay: competition with 125I-labelled standard peptide 941.01 for purified HLA, gel filtration
Measurement Conditions: remark: other sources report otherwise; scale: ratio
Answer as a number with no unit attached.

These solved cases illustrate the format of a correct answer.
1) GITSWGPEPCA (modifications not checked) [Kallikrein (hK2) peptide … (position 225)] : 0.0001
2) GAAPLILSRIV (modifications not checked) [PSA peptide … (position 12)] : 0.0006
3) GLPTQEPALGT (modifications not checked) [Kallikrein (hK2) peptide … (position 140)] : 0.0006
4) WIKDTIAA (modifications not checked) [WIKDTIAA (Kallikrein, position 252, 8 amino acids)] : 0.0002

Query WVLTAAHCL (modifications not checked) [… (Kallikrein, position 59, 9 amino acids)] yields binding affinity ratio of 0.016
